# Run Parameters: 23.0 °C

- Molecule: "CC/C=C\\CCO"
  log10 OH rate constant (cm³/molecule/s): -9.96
- Molecule: "CCCCOCC(C)O (stereo not given)"
  log10 OH rate constant (cm³/molecule/s): -10.4
- Molecule: "CC(=O)C1CC=C(C)CC1 (stereo not given)"
  log10 OH rate constant (cm³/molecule/s): -9.89
- Molecule: "C=C1C2CCC(C2)C1(C)C (stereo not given)"
  log10 OH rate constant (cm³/molecule/s): -10.3
- Molecule: "CCCCOCCOCCO"
  log10 OH rate constant (cm³/molecule/s): -10.1
- Molecule: "CC1=CC[C@@H]2[C@H]3[C@@H](C(C)C)CC[C@]2(C)[C@@H]13"
  log10 OH rate constant (cm³/molecule/s): -10
- Molecule: "CCC/C=C/C=O"
  log10 OH rate constant (cm³/molecule/s): -10.4
- Molecule: "CCCCCC=O"
  log10 OH rate constant (cm³/molecule/s): -10.5
- Molecule: "CC(=O)CCC=C(C)C"
  log10 OH rate constant (cm³/molecule/s): -9.8
- Molecule: "CCOCCOCCO"
  log10 OH rate constant (cm³/molecule/s): -10.2
- Molecule: "CCC(=O)C(O)CC (stereo not given)"
  log10 OH rate constant (cm³/molecule/s): -10.8
- Molecule: "CCOC(=O)C(C)O (stereo not given)"
  log10 OH rate constant (cm³/molecule/s): -11.4
- Molecule: "O=C/C=C/c1ccccc1"
  log10 OH rate constant (cm³/molecule/s): -10.3
- Molecule: "CC(C)CC(C)(C)O"
  log10 OH rate constant (cm³/molecule/s): -10.9
- Molecule: "c1ccc2c(c1)ccc1ccccc12"
  log10 OH rate constant (cm³/molecule/s): -10.9

###

# logP annotations

- Compound: "CC(=O)Nc1nc2c(ncn2COCCO)c(=O)[nH]1"
  logP: -1.3
- Compound: "CCC1(C)CC(=O)NC1=O (stereo not drawn)"
  logP: 0.38
- Compound: "CCCNC1=NC(=O)C(=Cc2ccc([N+](=O)[O-])o2)S1"
  logP: 1.24
- Compound: "CC1=CC(=O)CC(C)(C)C1"
  logP: 1.7
- Compound: "COc1ccc2sc(C(=O)Nc3nnn[nH]3)c(OC(C)C)c2c1"
  logP: 1.78
- Compound: "CC1CCC2C(C)C(OC3OC(C(=O)O)C(O)C(O)C3O)OC3OC4(C)CCC1C32OO4 (stereo not drawn)"
  logP: 1.08
- Compound: "ClC1(Cl)CC1(c1ccccc1)c1ccccc1"
  logP: 4.88
- Compound: "NS(=O)(=O)c1cc2cc(CNCCO)sc2s1"
  logP: -0.72
- Compound: "Cn1cnc(I)c1[N+](=O)[O-]"
  logP: 1.29
- Compound: "COCc1ccc(COC)cc1"
  logP: 1.28
- Compound: "COc1cc(Cl)c(Cl)cc1Cl"
  logP: 3.85
- Compound: "CCNC(=S)NCC"
  logP: 0.57
- Compound: "O=C1CCC2CCC(=O)N12"
  logP: -1.11
- Compound: "Clc1ccc2cc(Cl)c(Cl)cc2c1"
  logP: 5.12
- Compound: "OCc1ccccc1F"
  logP: 1.31
- Compound: "O=C(c1ccccc1)n1ncc2c(=O)[nH]cnc21"
  logP: 1.2
- Compound: "N#Cc1cc(I)c(O)c(I)c1"
  logP: 3.43
- Compound: "CC(C)C(=O)Nc1ccc([N+](=O)[O-])c(C(F)(F)F)c1"
  logP: 3.35
